# Measurement parameters: a range is the spread between reports
Recorded melting point, one value per entry.

Examples from the recorded data:
CC#CCCC ... -90 to -89.6 °C
OCCSSCCO ... 25 to 26 °C
Cc1ccc2c(c1)C(=O)c1ccccc1C2=O ... 172 to 177 °C

Enquiry: Record request: melting point value, item C#Cc1ccccc1
Return: -45 to -44.8 °C

Enquiry: Record request: melting point value, item BrCBr
Return: -53 to -52 °C

Enquiry: Record request: melting point value, item O=Cc1ccccc1C(=O)O
Return: 97 to 99 °C

Enquiry: Record request: melting point value, item O=[N+]([O-])c1cccc(Cl)c1Cl
Return: 61.5 to 62 °C

Enquiry: Record request: melting point value, item NS(=O)(=O)c1ccc([N+](=O)[O-])cc1
Return: 179 to 180 °C

Enquiry: Record request: melting point value, item CCCCCCCCCCCCCCCCC(=O)O
Return: 60 to 61.3 °C

Enquiry: Record request: melting point value, item O=C(/C=C1\Cc2ccccc21)c1ccccc1
Return: 50 to 55 °C

Enquiry: Record request: melting point value, item CNc1ccccc1C(=O)OC
Return: 18 to 19 °C

Enquiry: Record request: melting point value, item CC(C)c1ncc([N+](=O)[O-])n1C
Return: 60 to 61 °C

Enquiry: Record request: melting point value, item Clc1ccccn1
Return: -46.5 to -46 °C

Enquiry: Record request: melting point value, item COc1cc(CO)ccc1O
Return: 114 to 115 °C

Enquiry: Record request: melting point value, item CCCCCCCCCCCCI
Return: -3 to 0.3 °C

Enquiry: Record request: melting point value, item COc1ccccc1
Return: -37.5 to -37 °C

Enquiry: Record request: melting point value, item O=P(Oc1ccccc1)(Oc1ccccc1)Oc1ccccc1
Return: 50 to 50.5 °C

Enquiry: Record request: melting point value, item c1ccc(SSc2ccccc2)cc1
Return: 60 to 62 °C
